- tested_target: T1, human EphA1 (Homo sapiens, UniProt P21709)
- T1 construct: a protein of the extracellular region of each human Eph receptor fused with the SEAP protein and the His tag; made in house; host or cells: Expi293F cells (culture supernatant)
- T1 sequence (P21709 26-547 limits assumed): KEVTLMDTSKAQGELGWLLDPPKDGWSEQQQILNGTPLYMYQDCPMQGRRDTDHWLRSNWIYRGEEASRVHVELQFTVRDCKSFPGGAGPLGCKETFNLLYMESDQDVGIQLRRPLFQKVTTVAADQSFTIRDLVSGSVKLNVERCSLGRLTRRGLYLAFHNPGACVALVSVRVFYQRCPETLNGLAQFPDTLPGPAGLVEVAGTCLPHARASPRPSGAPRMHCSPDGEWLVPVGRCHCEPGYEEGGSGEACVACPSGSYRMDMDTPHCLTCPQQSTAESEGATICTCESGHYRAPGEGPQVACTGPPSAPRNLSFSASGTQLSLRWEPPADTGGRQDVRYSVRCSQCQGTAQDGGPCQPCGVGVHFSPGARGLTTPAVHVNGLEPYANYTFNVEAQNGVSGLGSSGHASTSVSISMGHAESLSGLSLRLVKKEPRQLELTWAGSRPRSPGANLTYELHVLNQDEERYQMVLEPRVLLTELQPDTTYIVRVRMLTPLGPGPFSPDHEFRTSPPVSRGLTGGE
- test: Selectivity ELISA of humanized antibodies for human Eph receptor
- Type: binding
- condition_description: coated protein 1 nM
measure_name: hEphA1-SEAP-: absorbance at 450 nm, percentage with respect to hEphA4-SEAP-His as 100% (%)
# output: bare number, implied unit %

What value of measured hEphA1-SEAP-: absorbance at 450 nm, percentage with respect to hEphA4-SEAP-His as 100% is listed for 87 (antibody, V domains shown, constant regions without entry; synthetic humanized antibody light chain variable region sequence; synthetic humanized antibody heavy chain variable region sequence) VL: DIQMTQSPSSLSASVGDRVTITCRASENIYRNLAWYQQKPGKAPQLLLYAATNLADGVPSRFSGSGSGTDYTLTISSLQPEDFATYYCQHFWGTPWTFGQGTKVEIK VH: QVQLVQSGSELKKPGASVKVSCKASGYTFTDYSMHWVRQAPGQGLEWMGWINTETGEPTYAQGFTGRFVFSLDTSVSTAYLQISSLKAEDTAVYYCARIPLYYYGSRYWYFDVWGQGTTVTVSS ?
5.3
